Target: human V1a receptor (Homo sapiens)
Construct: expressed in transfected cells; host or cells: CHO K1 (ATCC), also stably transfected with a modified aequorin
Sequence (P37288 whole entry): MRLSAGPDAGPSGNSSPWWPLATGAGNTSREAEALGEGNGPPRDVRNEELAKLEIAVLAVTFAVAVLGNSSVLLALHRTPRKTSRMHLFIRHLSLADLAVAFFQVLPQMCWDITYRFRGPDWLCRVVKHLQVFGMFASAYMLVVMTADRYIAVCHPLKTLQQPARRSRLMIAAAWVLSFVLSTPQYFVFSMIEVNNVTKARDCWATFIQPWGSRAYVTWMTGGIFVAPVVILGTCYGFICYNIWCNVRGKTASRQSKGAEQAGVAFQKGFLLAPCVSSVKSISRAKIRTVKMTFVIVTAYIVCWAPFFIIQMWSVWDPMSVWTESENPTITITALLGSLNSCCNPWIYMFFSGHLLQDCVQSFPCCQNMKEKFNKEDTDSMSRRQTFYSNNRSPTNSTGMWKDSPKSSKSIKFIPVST
Test: Cellular in vitro assay for determining vasopressin receptor activity, V1a receptor cell line (CHO, aequorin luminescence)
Type: cell-based
Conditions: selectivity ratio IC50 hV2 / IC50 hV1a
Procedure: B-1. Cellular In Vitro Assay for Determining Vasopressin Receptor Activity The identification of agonists and antagonists of the V1a and V2 vasopressin receptors from humans, rats and dogs as well as the quantification of the activity of the compounds of the invention is carried out using recombinant cell lines. […] The bioluminescence of the cell lines is detected using a suitable luminometer [Milligan G, Marshall F, Rees S, Trends in Pharmacological Sciences 17, 235-237 (1996)]. […]
measurementName: ratio IC50 hV2/hV1a

compound	measurementName	obsValue
O=C(c1cccc(Cl)c1-n1cnc(Cn2nc(-c3ccc(Cl)cc3)n(C[C@@H](O)C(F)(F)F)c2=O)n1)N1CCC(F)(F)C1	ratio IC50 hV2/hV1a	50.0

a. O=C(Nc1ccncc1-n1cnc(Cn2nc(-c3ccc(Cl)cc3)n(C[C@H](O)C(F)(F)F)c2=O)n1)OCC(F)(F)F
b. COC[C@@H]1CCCN1C(=O)c1ccccc1-n1cnc(Cn2nc(-c3ccc(Cl)cc3)n(C[C@H](O)C(F)(F)F)c2=O)n1
Of a and b , whose reported ratio IC50 hV2/hV1a is numerically smaller? Please identify the chosen entry by its label.
a
(a: 5.6, b: 1327.3)

A. N#CCNC(=O)c1ccccc1-n1cnc(Cn2nc(-c3ccc(Cl)cc3)n(C[C@H](O)C(F)(F)F)c2=O)n1
B. CC1CCCC(NC(=O)c2ccccc2-n2cnc(Cn3nc(-c4ccc(Cl)cc4)n(C[C@H](O)C(F)(F)F)c3=O)n2)C1 (mixture of isomers)
Of A and B , whose reported ratio IC50 hV2/hV1a is numerically smaller? Please identify the chosen entry by its label.
B
(B: 11.5, A: 33.6)

* * *

Molecular target: human V2 receptor (Homo sapiens, UniProt P30518)
Construct: expressed in transfected cells; host or cells: CHO K1 (ATCC) expressing firefly luciferase under a CRE-responsive promoter
Sequence (P30518 whole entry): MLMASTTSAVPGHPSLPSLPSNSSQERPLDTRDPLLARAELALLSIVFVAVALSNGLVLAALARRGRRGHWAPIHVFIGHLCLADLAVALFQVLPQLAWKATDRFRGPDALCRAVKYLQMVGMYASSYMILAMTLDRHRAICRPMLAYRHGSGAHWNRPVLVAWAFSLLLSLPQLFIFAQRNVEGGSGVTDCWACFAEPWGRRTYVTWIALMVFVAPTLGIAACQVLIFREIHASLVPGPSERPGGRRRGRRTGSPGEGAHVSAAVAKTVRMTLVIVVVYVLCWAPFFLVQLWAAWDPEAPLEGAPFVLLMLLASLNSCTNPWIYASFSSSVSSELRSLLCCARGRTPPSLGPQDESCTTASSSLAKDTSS
Test: Cellular in vitro assay for determining vasopressin receptor activity, V2 receptor cell line (CHO, CRE-luciferase)
Type: cell-based
Conditions: CHO cell line transfected with human V2 receptor; [Arg8]-vasopressin at EC50 concentration, 3 hours; read-out: IC50 hV2
Protocol: B-1. Cellular In Vitro Assay for Determining Vasopressin Receptor Activity The identification of agonists and antagonists of the V1a and V2 vasopressin receptors from humans, rats and dogs as well as the quantification of the activity of the compounds of the invention is carried out using recombinant cell lines. […] The bioluminescence of the cell lines is detected using a suitable luminometer [Milligan G, Marshall F, Rees S, Trends in Pharmacological Sciences 17, 235-237 (1996)]. […]
pIC50: −log10 of the molar value.
measurementName: pIC50

compound	subjectOfTest	pIC50
O=C(c1cccc(Cl)c1-n1cnc(Cn2nc(-c3ccc(Cl)cc3)n(C[C@H](O)C(F)(F)F)c2=O)n1)N1CCC(F)(F)C1	human V2 receptor (Homo sapiens, UniProt P30518)	5.84
Cc1ccn(CC(=O)Nc2ncccc2-n2cnc(Cn3nc(-c4ccc(Cl)cc4)n(C[C@H](O)C(F)(F)F)c3=O)n2)n1	human V2 receptor (Homo sapiens, UniProt P30518)	5.98

1. O=C(NCc1cc(F)ccc1F)c1ccccc1-n1cnc(Cn2nc(-c3ccc(Cl)cc3)n(C[C@H](O)C(F)(F)F)c2=O)n1
2. O=C(CC1CCCCC1)Nc1ncccc1-n1cnc(Cn2nc(-c3ccc(Cl)cc3)n(C[C@H](O)C(F)(F)F)c2=O)n1
3. CC1CN(C(=O)c2ccccc2-n2cnc(Cn3nc(-c4ccc(Cl)cc4)n(C[C@H](O)C(F)(F)F)c3=O)n2)CCN1C (some centres unmarked)
Please produce an ascending ranking of these compounds based on pIC50. Answer by naming the labels in the order asked.
3, 2, 1
(3: 5.40, 2: 5.96, 1: 6.52)

1. O=C(NCc1ccc(F)c(F)c1)c1ccccc1-n1cnc(Cn2nc(-c3ccc(Cl)cc3)n(C[C@H](O)C(F)(F)F)c2=O)n1
2. CN(Cc1ccco1)C(=O)c1ccccc1-n1cnc(Cn2nc(-c3ccc(Cl)cc3)n(C[C@H](O)C(F)(F)F)c2=O)n1
3. O=C(Nc1cccnc1-n1cnc(Cn2nc(-c3ccc(Cl)cc3)n(C[C@H](O)C(F)(F)F)c2=O)n1)C1CC1(F)F (single isomer, unassigned) [Example 42]
4. O=C(Nc1ncccc1-n1cnc(Cn2nc(-c3ccc(Cl)cc3)n(C[C@H](O)C(F)(F)F)c2=O)n1)c1ccncc1
5. CC1(C)CN(C(=O)c2cccc(Cl)c2-n2cnc(Cn3nc(-c4ccc(Cl)cc4)n(C[C@H](O)C(F)(F)F)c3=O)n2)CCO1
Please produce an ascending ranking of these compounds based on pIC50. Answer by naming the labels in the order asked.
5, 4, 2, 3, 1
(5: 4.68, 4: 5.52, 2: 5.87, 3: 6.21, 1: 6.62)

A. O=C(CC1CCC1)Nc1ncccc1-n1cnc(Cn2nc(-c3ccc(Cl)cc3)n(C[C@H](O)C(F)(F)F)c2=O)n1
B. CCCNC(=O)c1ccccc1-n1cnc(Cn2nc(-c3ccc(Cl)cc3)n(C[C@H](O)C(F)(F)F)c2=O)n1
C. CC1C(=O)NCCN1C(=O)c1ccccc1-n1cnc(Cn2nc(-c3ccc(Cl)cc3)n(C[C@H](O)C(F)(F)F)c2=O)n1 (mixture of isomers)
Please produce an ascending ranking of these compounds based on pIC50. Answer by naming the labels in the order asked.
C, A, B

I. NC(=O)[C@H]1CCCN1c1ncccc1-n1cnc(Cn2nc(-c3ccc(Cl)cc3)n(C[C@H](O)C(F)(F)F)c2=O)n1
II. CC(C)(C)CC(=O)Nc1ncccc1-n1cnc(Cn2nc(-c3ccc(Cl)cc3)n(C[C@H](O)C(F)(F)F)c2=O)n1
III. O=C(CC1CC1)Nc1ncccc1-n1cnc(Cn2nc(-c3ccc(Cl)cc3)n(C[C@H](O)C(F)(F)F)c2=O)n1
Please produce an ascending ranking of these compounds based on pIC50. Answer by naming the labels in the order asked.
II, III, I
(II: 5.42, III: 5.96, I: 6.44)
